system: MDA-MB-435; experiment: NCI tumour cell line growth inhibition, 48 h; in the data active means GI50 below about 0.43 µM; inactive means the rest
Output constraint: value belongs to yes (1) = active, no (0) = inactive

{"compound-structure-string": "O=C(Nc1ccc(Cl)c(C(F)(F)F)c1)Nc1ccc(-c2cccnc2)cc1N1CCC(CO)CC1", "group-label": "no (0)"}
{"compound-structure-string": "ClCc1ccccc1Cn1cnc2nc(Cl)nc(Cl)c21", "group-label": "no (0)"}
{"compound-structure-string": "COc1cccc(S(=O)(=O)NC2=NCCN2C(=S)SN2CCn3c2nsc3=S)c1", "group-label": "no (0)"}
{"compound-structure-string": "COc1cc(-n2cc(-c3ccc(Cl)cc3)n(-c3ccccc3)c2=O)cc(OC)c1OC", "group-label": "no (0)"}
{"compound-structure-string": "CCCCCCCCCCCCCCCCn1cc[n+](C)c1", "group-label": "yes (1)"}

As a next step, examine the compound that follows.
Query: recorded result category for COc1ccc(Nc2ncc(I)c(NCCCNC(=O)C3CCC3)n2)cc1 in this test
Response: no (0)

* * *

tested on: MDA-MB-231 breast; test: NCI tumour cell line growth inhibition, 48 h; in the data active means GI50 below about 0.43 µM; inactive means the rest
// allowed return values: 1 (yes) = active, 0 (no) = inactive

Some entries whose results are on file:
{"molecule": "Clc1cc(Br)ccc1-c1ccc(CNCC2CCNCC2)o1", "target-entity": "MDA-MB-231 breast", "group-label": "0 (no)"}
{"molecule": "CCCCCCOC(=O)CC1=C(C)/C(=C/c2[nH]c(-c3ccc[nH]3)cc2OC)N=C1C", "target-entity": "MDA-MB-231 breast", "group-label": "1 (yes)"}
{"molecule": "O=C1OC2(c3ccc(O)cc3Oc3cc(O)ccc32)c2cccc3cccc1c23", "target-entity": "MDA-MB-231 breast", "group-label": "0 (no)"}

Query: So what was the verdict on COc1cccc(S(=O)(=O)NC2=NCCN2C(=S)SN2CCn3c2nsc3=S)c1 in this test?
Response: 0 (no)

Query: I'd appreciate the recorded outcome for Cc1ccc(/C(=N/NS(=O)(=O)c2cc(C)c(Cl)cc2Cl)Sc2cc(Cl)c(C)cc2S(N)(=O)=O)cc1 from this test.
Response: 0 (no)

Query: Record lookup: outcome of this test for O=Cc1ccc(-c2ccc(-c3nc4ccccc4s3)cc2)o1 ?
Response: 0 (no)

Query: Tell me the recorded outcome of this test for CCOC(=O)Cc1csc(NC(=O)C(OC(=O)c2ccc(Cl)cc2)c2ccccc2)n1 (configuration not stated) .
Response: 0 (no)

Query: Please let me know the test result on file for O=c1[nH]c(-c2ccc(Cl)c(Cl)c2)cn1-c1ccc(Cl)cc1 .
Response: 0 (no)

Query: State the result this test recorded for COc1ccc(OC)c(N2CC(O)=C(c3nc4ccccc4s3)C2=N)c1 .
Response: 0 (no)

Query: GET /call?item= CC(C)[C@@]12C[C@@H](OC(=O)C3CO3)[C@@](C)(O1)[C@@H]1CC[C@@H](C)[C@H]1[C@@H]2OC(=O)/C=C/c1ccccc1 (some centres not stated) returns the recorded outcome of this test.
Response: 0 (no)

Query: Please let me know the test result on file for O=C(COc1ccccc1)NNc1ccccc1 .
Response: 0 (no)

Query: Please state the recorded outcome for this molecule: Oc1nc(N2CCOCC2)sc1/C=C1\C=Nc2ccccc21
Response: 0 (no)

* * *

system: HOP-18 NSCLC; experiment: NCI tumour cell line growth inhibition, 48 h
quantity-kind: TGI

{"molecule": "COc1cc([C@@H]2c3cc4c(cc3[C@@H](NCc3ccccc3F)C3COC(=O)[C@@H]32)OCO4)cc(OC)c1O (stereo partly drawn)", "quantity-kind": "TGI", "reported-result": "> 100 µM"}
{"molecule": "Cc1ccc(NC(=O)C2C3C=CC(O3)C2C(=O)O)cc1 (stereo not drawn)", "quantity-kind": "TGI", "reported-result": "> 100 µM"}

Query: Which TGI value belongs to COC(=O)C(Cc1nc2ccc(Cl)cc2[nH]c1=O)C(=O)C(=O)Nc1cc(C)ccc1C (stereo not drawn) ?
Response: > 100 µM

* * *

Please provide measured TGI for the entries that follow.
tested on: SK-MEL-2 melanoma; test: NCI tumour cell line growth inhibition, 48 h

Completed entries (count: 2):
{"compound": "Fc1cc2nc3n(c2cc1F)C(c1c(F)cccc1F)SC3 (stereo not drawn)", "reported-result": "> 100 µM"}
{"compound": "Cc1ccc(/C(=N/NS(=O)(=O)c2cc(C)c(Cl)cc2Cl)Sc2cc(Cl)c(C)cc2S(N)(=O)=O)cc1", "reported-result": "> 100 µM"}

Query: May I ask what TGI has been recorded for CN(C)c1ccc(N=C2N=C(Nc3ccccc3)C(=Nc3ccccc3)S2)cc1 ?
Response: > 100 µM

* * *

system: T-47D breast; experiment: NCI tumour cell line growth inhibition, 48 h; in the data active means GI50 below about 0.43 µM; inactive means the rest
Write down one outcome, taken from active, inactive

Previously resolved entries follow.
{"compound": "CCOC(=O)Cc1csc(NC(=O)C(OC(=O)c2ccc(Cl)cc2)c2ccccc2)n1 (centres undefined)", "target-entity": "T-47D breast", "group-label": "inactive"}
{"compound": "CCCCCCOC(=O)CC1=C(C)/C(=C/c2[nH]c(-c3ccc[nH]3)cc2OC)N=C1C", "target-entity": "T-47D breast", "group-label": "active"}
{"compound": "CCOc1ccc(-c2nc3ccc(-c4nc5ccc(N6CCN(C)CC6)cc5[nH]4)cc3[nH]2)cc1", "target-entity": "T-47D breast", "group-label": "active"}
{"compound": "CCn1nc(C2CCN(C(=O)CCO)CC2)nc1-c1cnc(N)c(-c2nnc(C(C)(C)C)o2)n1", "target-entity": "T-47D breast", "group-label": "active"}
{"compound": "COc1ccc(Sc2[nH]c(C=O)c3ccccc23)cc1", "target-entity": "T-47D breast", "group-label": "inactive"}

Query: Per the records of this test, what outcome belongs to CC(C)CCN(CCC(C)C)CC(=O)Nc1ccc(S(=O)(=O)c2ccc(NC(=O)CN(CCC(C)C)CCC(C)C)cc2)cc1 ?
Response: inactive

Query: Could you please tell me the result logged for CCCCCSc1ccc2nc(NC(=O)OCC)sc2c1 in this assay?
Response: inactive

Query: Which outcome was assigned to COc1ccc(-c2cnc(-c3ccc(OC)cc3)n2-c2cc(OC)c(OC)c(OC)c2)cc1 in this test?
Response: inactive

Query: GET /call?item= COC(=O)[C@H](Cc1cn(C)cn1)NC(=O)[C@H](CC(C)C)NC(=O)Nc1cc(C(F)(F)F)cc(C(F)(F)F)c1 returns the recorded outcome of this test.
Response: inactive

* * *

system: U251 CNS
Pick from active, inactive when you respond.

{"compound-structure-string": "CCOc1ccccc1/C=N\\N=C(N/N=C/c1ccccc1OCC)N/N=C/c1ccccc1OCC", "group-label": "inactive"}
{"compound-structure-string": "COc1ccc(C)c2sc(N(Cc3cccnc3)C(=O)c3ccc(C#N)cc3)nc12", "group-label": "inactive"}
{"compound-structure-string": "Clc1ccc(-c2cnc3c(-c4ccnc(N5CCNCC5)c4)cnn3c2)cc1", "group-label": "inactive"}
{"compound-structure-string": "CCOC(=O)c1ccc(N2NC(=O)/C(=C/c3ccc([N+](=O)[O-])o3)C2=O)cc1", "group-label": "inactive"}
{"compound-structure-string": "COc1ccc(C(=O)/C=C/c2cc(-c3ccc(OC)c(OC)c3)n[nH]2)cc1OC", "group-label": "inactive"}
{"compound-structure-string": "CCc1cc2c(c(OCC(F)(F)F)c(C(=O)NC3CCN(C(=O)CO)CC3)n2C)c(=O)n1CC(=O)c1ccccc1", "group-label": "inactive"}
{"compound-structure-string": "CCCCCSc1ccc2nc(NC(=O)OCC)sc2c1", "group-label": "active"}
{"compound-structure-string": "Oc1ccc(N=Nc2ccc(Br)cc2)c(O)c1", "group-label": "inactive"}
{"compound-structure-string": "ClCc1ccccc1Cn1cnc2nc(Cl)nc(Cl)c21", "group-label": "active"}
{"compound-structure-string": "COc1ccc(Nc2ncc(I)c(NCCCNC(=O)C3CCC3)n2)cc1", "group-label": "inactive"}

# ---- query molecule ----
Query: Record request — test call for O=C(COc1ccccc1)NNc1ccccc1
Response: inactive

* * *

system: COLO 205 colon; test: NCI tumour cell line growth inhibition, 48 h
quantity-kind: TGI

These solved cases illustrate the format of a correct answer.
{"molecule": "COC(=O)[C@H](Cc1cn(C)cn1)NC(=O)[C@H](CC(C)C)NC(=O)Nc1cc(C(F)(F)F)cc(C(F)(F)F)c1", "target-entity": "COLO 205 colon", "TGI": "> 10 µM"}
{"molecule": "CCCC(=O)OCC1OC(n2cc(F)c(=O)[nH]c2=O)C(F)C1O (stereo not given)", "target-entity": "COLO 205 colon", "TGI": "> 100 µM"}
{"molecule": "C/C(=N\\O)c1ccc(OCc2cc(C(F)(F)F)cc(C(F)(F)F)c2)cc1", "target-entity": "COLO 205 colon", "TGI": "> 100 µM"}
{"molecule": "N#CC(NNC(=O)Cc1ccccc1)c1ccc([N+](=O)[O-])cc1 (stereo not given)", "target-entity": "COLO 205 colon", "TGI": "> 100 µM"}
{"molecule": "CC(=O)OCC12CC(CC1OC(C)=O)c1ccccc12 (stereo not given)", "target-entity": "COLO 205 colon", "TGI": "> 100 µM"}

Your task in this section: give TGI for each listed record.
1. CC(C)CC(=O)CC(C)[C@]1(CCCOCc2ccccc2)C(=O)N2CCC3(C[C@@]24CCC[C@H]41)OCCO3 (stereo not given in full)
2. N#CC1(CCCI)CCCC1
3. O=c1c2ccccc2n2c(-c3ccccc3O)nnc2n1-c1ccccc1
4. CN(C)c1ccc(N=C2N=C(Nc3ccccc3)C(=Nc3ccccc3)S2)cc1
5. Cc1cc(N(CCC#N)CCC#N)ccc1/C=C1N=C(/C=C\c2ccccc2)N(NC(=O)CC(=O)Nc2ccccc2Cl)C\1=O

Response:
["> 10 µM", "> 100 µM", "> 100 µM", "> 100 µM", "> 100 µM"]
